test-description: PRK study: plasma pharmacokinetics of compound I
Format: in vivo, human
experimental-parameters: human, topical; plasma, Day 4 (13th dose), 2.5% four times daily; read-out: Tmax, Min, Max
measure-name: Tmax

Inquiry: What measured Tmax goes with CC(C)c1nc2cc(O)ccc2c(=O)n1-c1ccc(C#N)cc1 [Compound I] ?
Reply text: 0 to 2.08 h

Origin of the recorded values: patent US11234982B2
